- measurement_context: 323.15 K; 81.5 kPa; Liquid
endpoint_label: mass density (kg/m3)

May I ask what mass density has been recorded for CC(C)O ? 758.68

Bench note: what mass density did COCCO show? 936.95

// lookup mass density for CCCO 779.02

May I ask what mass density has been recorded for CC(O)CO (centres undefined) ? 1013.68

----------
- measurement_context: 303.15 K; 81.5 kPa; Liquid
endpoint_label: mass density (kg/m3)

# input compound: CC(O)CO (centres undefined) [1,2-propanediol] ; wanted: its mass density 1028.89

I have this compound here, COCCO [2-methoxyethan-1-ol] , and I need its recorded mass density. 955.68

Look at this compound and give its reported mass density. CC(C)O [propan-2-ol] 776.63

Could you tell me which mass density is on file for CCCO [propan-1-ol] ? 795.57

----------
- measurement_context: 293.15 K; 81.5 kPa; Liquid
endpoint_label: mass density (kg/m3)

// lookup mass density for CCCO 803.61

# input compound: COCCO ; wanted: its mass density 964.86

Given CC(C)O , state its recorded mass density. 785.1

// mass density lookup, key: CC(O)CO (centres undefined) 1036.3

----------
- measurement_context: 343.15 K; 81.5 kPa; Liquid
endpoint_label: mass density (kg/m3)

Given COCCO , state its recorded mass density. 917.64

Recorded mass density of CCCO , please. 761.51

Which mass density value belongs to CC(C)O ? 738.91

What value of measured mass density is listed for CC(O)CO (centres undefined) ? 997.86
